These measurements were taken from PubChem BioAssay AID588568.

molecular target: Melanin-concentrating hormone receptor 1 (Homo sapiens); experiment: antagonist activity at MCH receptor 1 – cell-based, fluorescence, set 4, counter-screen for GPR7 antagonist project, dose response (AID 588568); details: MCHR1-expressing cells, fluorescence antagonist assay; run 1
The source made the active and inactive calls. No rule for the calls is given here.
Select the matching outcome among active, inactive

Solved cases (4 shown):
Molecule	Group
COc1ccc(Oc2c(Cl)c(-c3ccc(OC)cc3)nn(Cc3ccccc3C)c2=O)cc1	inactive
Cc1ccc(CN2CCCCC2C(=O)N2CCN(c3ccc([N+](=O)[O-])cc3)CC2)cc1C (stereo not given)	active
COc1ccc(Oc2c(Cl)cnn(Cc3ccc(OC(C)C)c(C#N)c3)c2=O)cc1	active
COc1ccc(Oc2c(Cl)cnn(Cc3c(C)cc(C)cc3C)c2=O)cc1	active

Moving on to the next molecule.
For COc1ccc(Oc2c(Cl)cnn(Cc3ccc(C)c4ccccc34)c2=O)cc1 , which call appears in the assay record?
inactive
